Test system: OCI-LY10
experimentalDetails: OCI-LY10 viability, CTG
Type: cell-based
testSettings: MYD88 Mutant Lines; read-out: OCI-LY10 Viability, CTG IC50
observationType: pIC50
Friendly reminder that pIC50 comes from taking -log10 of the concentration in mol/L.

Fill in reported pIC50 for this entry: Cn1c(=O)n([C@H]2CCC(=O)NC2=O)c2cccc(CCCOC3CCN(CC4CCC(n5cc(NC(=O)c6cnn7ccc(N8CCOCC8)nc67)c(C(F)F)n5)CC4)CC3)c21 (stereo partly shown)
5.92

----------
Tested on: TNFα
experimentalDetails: Human whole blood LPS TNFα assay
Assay type: cell-based
testSettings: 20 h pretreatment, LPS 5 h, read-out: IRAK4 human whole blood LPS TNFa inhibition: Average external-IC50
Experimental: Human Whole blood LPS TNFα assay. Whole blood was collected fresh and plated same day into 96 well plates at 180 μL per well. Compound plates were prepared in DMSO as 8-point dose curves in duplicate, starting dose 2 μM, 5-fold. Compounds are added 20 μL into blood for final 200 μL per well. Compound and cells were incubated at 37° C., 5% CO2 for 20 hours. […]
pIC50: −log10 of the molar value.
observationType: pIC50

Worked cases, pIC50 given:
1) CN(CCCOCCCc1ccc2c(c1)n(C)c(=O)n2C1CCC(=O)NC1=O)C[C@H]1CC[C@H](n2cc(NC(=O)c3coc(-c4ccnc(NCC5CC5)c4)n3)c(C(F)F)n2)CC1 (some centres unmarked) [I-62]
< 6.00
2) CN(C[C@H]1CN(CCCc2ccc3c(c2)n(C)c(=O)n3C2CCC(=O)NC2=O)CCO1)C[C@H]1CC[C@H](n2cc(NC(=O)c3coc(-c4ccnc(NCC5CC5)c4)n3)c(C(F)F)n2)CC1 (some centres unmarked) [I-34]
6.30 to 7.00
3) CN(C[C@H]1CN(CCCc2ccc3c(c2)n(C)c(=O)n3C2CCC(=O)NC2=O)CCO1)C(=O)[C@H]1CC[C@H](n2cc(NC(=O)c3coc(-c4ccnc(NCC5CC5)c4)n3)c(C(F)F)n2)CC1 (some centres unmarked) [I-18]
6.30 to 7.00
4) O=C1CCC(N2C[C@H](c3ccc(C#CCN4CCO[C@@H](CNC[C@H]5CC[C@H](n6cc(NC(=O)c7coc(-c8ccnc(NCC9CC9)c8)n7)c(C(F)F)n6)CC5)C4)cc3)OC2=O)C(=O)N1 (some centres unmarked) [I-40]
6.30 to 7.00
5) O=C1CCC(N2C[C@H](c3cccc(C#CCN4CCO[C@@H](CNC[C@H]5CC[C@H](n6cc(NC(=O)c7coc(-c8ccnc(NCC9CC9)c8)n7)c(C(F)F)n6)CC5)C4)c3)OC2=O)C(=O)N1 (some centres unmarked) [I-39]
6.30 to 7.00
6) C=C(C)c1nn([C@H]2CC[C@H](C(=O)N(C)CCCOCCCc3cccc4c3n(C)c(=O)n4C3CCC(=O)NC3=O)CC2)cc1NC(=O)c1coc(-c2ccnc(NCC3CC3)c2)n1 (some centres unmarked) [I-31]
< 6.00
7) O=C1CCC(n2c(=O)oc3c(CCCOCCNC(=O)[C@H]4CC[C@H](n5cc(NC(=O)c6coc(-c7ccnc(NCC8CC8)c7)n6)c(C(F)F)n5)CC4)cccc32)C(=O)N1 (some centres unmarked) [I-5]
< 6.00
8) Cn1c(=O)n(C2CCC(=O)NC2=O)c2cccc(CCCOC3CCN(C[C@H]4CC[C@H](n5cc(NC(=O)c6coc(-c7ccnc(NCC8CC8)c7)n6)c(C(F)F)n5)CC4)CC3)c21 (some centres unmarked) [I-48]
6.30 to 7.00
9) NC(=O)c1nn([C@H]2CC[C@H](CNCCCOCCCc3cccc4c3oc(=O)n4C3CCC(=O)NC3=O)CC2)cc1NC(=O)c1coc(-c2ccnc(NCC(F)(F)F)c2)n1 (some centres unmarked) [I-12]
6.00 to 6.30
10) Cn1c(=O)n(C2CCC(=O)NC2=O)c2cccc(CCCOCCOCCNC[C@H]3CC[C@H](n4cc(NC(=O)c5coc(-c6ccnc(NCC7CC7)c6)n5)c(C(F)F)n4)CC3)c21 (some centres unmarked) [I-2]
< 6.00

Give TNFα pIC50 for the following compound: CN(CCOCCOCCCc1ccc2c(c1)oc(=O)n2C1CCC(=O)NC1=O)C[C@H]1CC[C@H](n2cc(NC(=O)c3coc(-c4ccnc(NCC5CC5)c4)n3)c(C(F)F)n2)CC1 (some centres unmarked) [I-43]
6.30 to 7.00

# return pIC50 for Cn1c(=O)n(C2CCC(=O)NC2=O)c2ccc(CCCN3CCO[C@@H](CNC[C@H]4CC[C@H](n5cc(NC(=O)c6coc(-c7ccnc(NCC8CC8)c7)n6)c(C(F)F)n5)CC4)C3)cc21 (some centres unmarked) [I-16] , test system: TNFα
< 6.00
